The reader will find reported IC50 values listed item by item below.
- Tested target: HLA-B*4002 (human)
- Procedure summary: competition binding assay, purified HLA
- Experimental setup: remark: other sources report otherwise
Write the value in nM as a bare number.

PEYLTPQGGAA [Her2/neu 1194 …] ... 200

Please examine the following record next.
Given the binder GERLPQPPICTI [Her2/neu 938 GB…] , write its reported IC50. 95
